- target desc: Gag-Pol polyprotein (Human immunodeficiency virus type 1 group M subtype B (isolate HXB2))
- method summary: RNase H inhibition, HIV 1 Gag Pol polyprotein, FRET biochemical assay, screening (AID 372)
- test context: HIV-1 RT RNase H, FRET RNA/DNA substrate fluorescence; at 10 µM
Among all 100,000 compounds or so, about 770 (0.77%) were called active. No stated cut-off is given here; in the data, active means inhibition above about 50%; inactive means the rest. What follows is part of a selection rich in actives, with near analogues and random picks from the rest.
Output constraint: value belongs to TRUE for active, FALSE for inactive

>>> answer_label("CCCCNCCCCCOc1ccccc1C(C)C")
"FALSE"

Asked: Kindly provide the recorded test outcome for the following molecule: Cc1ccc2c(c1)C1C=CCC1C(C(=O)O)N2 (stereo not given)
Given back: FALSE

Asked: Outcome? O=C(c1cccs1)N1CCN(c2ccc([N+](=O)[O-])cc2)CC1
Given back: FALSE

Asked: Which outcome was assigned to NC(=O)c1cccc2c1NC(C(=O)O)C1CC=CC21 (stereo not given) in this test?
Given back: FALSE

Asked: Could you check what this test reported for OCc1ccc(-c2cccc(Cl)c2)o1 ?
Given back: FALSE
